# system name: Androgen receptor (Homo sapiens)
# Sequence (P10275 whole entry): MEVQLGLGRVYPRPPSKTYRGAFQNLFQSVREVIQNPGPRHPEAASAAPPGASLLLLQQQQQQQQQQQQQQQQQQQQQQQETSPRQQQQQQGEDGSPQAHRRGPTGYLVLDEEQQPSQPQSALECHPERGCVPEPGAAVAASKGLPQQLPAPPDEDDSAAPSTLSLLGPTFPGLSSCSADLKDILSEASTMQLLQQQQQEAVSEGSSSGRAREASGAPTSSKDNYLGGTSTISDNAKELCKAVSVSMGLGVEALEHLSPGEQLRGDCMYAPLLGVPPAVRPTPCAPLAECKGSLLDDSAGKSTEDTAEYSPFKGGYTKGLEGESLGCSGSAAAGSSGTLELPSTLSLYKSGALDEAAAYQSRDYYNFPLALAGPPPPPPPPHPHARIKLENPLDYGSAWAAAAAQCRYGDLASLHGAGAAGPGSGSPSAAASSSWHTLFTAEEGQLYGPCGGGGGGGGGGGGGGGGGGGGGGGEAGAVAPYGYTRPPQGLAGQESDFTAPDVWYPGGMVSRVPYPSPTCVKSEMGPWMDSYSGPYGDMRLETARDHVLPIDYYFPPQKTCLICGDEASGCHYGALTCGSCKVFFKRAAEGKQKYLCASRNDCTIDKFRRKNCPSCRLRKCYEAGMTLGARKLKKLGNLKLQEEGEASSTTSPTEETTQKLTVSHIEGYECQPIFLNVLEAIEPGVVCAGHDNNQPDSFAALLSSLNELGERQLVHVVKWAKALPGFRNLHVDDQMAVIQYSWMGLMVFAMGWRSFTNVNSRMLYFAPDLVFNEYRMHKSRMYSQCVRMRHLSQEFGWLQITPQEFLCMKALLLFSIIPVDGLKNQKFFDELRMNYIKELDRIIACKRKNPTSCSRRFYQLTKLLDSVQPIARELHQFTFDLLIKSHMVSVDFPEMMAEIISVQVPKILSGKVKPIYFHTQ
# experimental protocol: Displacement of [3H]-DHT from recombinant human androgen receptor expressed in CHO cells
test readout: pIC50
Remember, pIC50 is on a log scale: it is -log10 of the molar concentration.

The molecule listed as C[C@]12CCC(=O)N[C@@H]1CC[C@@H]1[C@@H]2CC[C@]2(C)[C@@H](C(=O)Nc3ccccc3)CC[C@@H]12 has a reported pIC50 of 4.64

---

# Species on record: Rattus norvegicus
# experimental protocol: Inhibition of rat liver 5alpha-reductase at 50 uM using testosterone as substrate incubated for 30 mins measured for 10 mins by fluorescence assay relative to control
test readout: inhibition (%)
Quick reminder: number only, in %, skip the unit.

Recorded inhibition, per entry:
structure string | inhibition / %
C[C@]12CCC(=O)O[C@@H]1CC[C@@H]1[C@@H]2CC[C@]2(C)[C@@H](C(=O)Nc3ccccc3)CC[C@@H]12 | 67.3
CC(C)(C)NC(=O)[C@H]1CC[C@H]2[C@@H]3CC[C@H]4OC(=O)CC[C@]4(C)[C@H]3CC[C@]12C | 48.3

Could you now consider this next compound?
The compound listed as CCN(CC)C(=O)[C@H]1CC[C@H]2[C@@H]3CC[C@H]4OC(=O)CC[C@]4(C)[C@H]3CC[C@]12C has a reported inhibition of 39.5
